# RUN_DESCRIPTION: logP by HPLC on reversed-phase column (EEC Directive 79/831 Annex V.A8)
# Type: physicochemical
# TEST_SETTINGS: HPLC on reversed-phase column (C 18), 40° C., 0.1% aqueous formic acid and acetonitrile, linear gradient 10% to 90% acetonitrile
Classify: 1 when logP is strictly less than 3; 0 when logP is not.

Answered examples (4):
>  <MOLECULE>
COc1ccc(C2CCCN2C(=O)c2c(C(F)F)nn(C)c2F)cc1 (centres unmarked) [Example 4]

>  <CLASSIFICATION>
1

$$$$
>  <MOLECULE>
CC(c1ccc(Cl)cc1Cl)C1CCCN1C(=O)c1c(C(F)F)nn(C)c1F (mixture of isomers) [Example 71]

>  <CLASSIFICATION>
0

$$$$
>  <MOLECULE>
CCC(c1ccccc1)C1CCCN1C(=O)c1c(C(F)F)nn(C)c1F (centres unmarked) [Example 53]

>  <CLASSIFICATION>
0

$$$$
>  <MOLECULE>
Cn1nc(C(F)F)c(C(=O)N2CCCC2c2cc(F)cc(F)c2)c1Cl (centres unmarked) [Example 9]

>  <CLASSIFICATION>
1

$$$$

Below: the item to evaluate.
Problem: Is it true that logP reported for CC(c1ccccc1Cl)C1CCCN1C(=O)c1c(C(F)F)nn(C)c1F (mixture of isomers) [Example 62] is less than 3?
Solution: 0
